target: T1, SARS-CoV-2 S1 (subunit 1) protein (SARS-CoV-2, UniProt P0DTC2 16-685); assay: phage ELISA
T1 construct: also called biotinylated SARS-CoV-2 S1
reportedEndpoint: screening ELISA (Avg), fold over background (fold over background)

binder	resultNumber
SARS-CoV-2 variant 1-9 (antibody, V domains shown) VH: EVQLLESGGGLVQPGGSLRLSCAASGFTFSSYDMSWVRQAPGKGLEWVSVISGSGGSTYYADSVKGRFTISRDNSKNTLYLQMNSLRAEDTAVYYCAKGPLVGWYFDLWGQGTLVTVSS VL: QSALTQPASVSGSPGQSITISCTGTSSDVGDYNLVSWYQQHPGKAPKLMIYEGSNRPSGVSNRFSGSKSGNTASLTISGLQAEDEADYYCCSYAGSSSFVVFGGGTKLTVL	18.5
SARS-CoV-2 variant 1-7 (antibody, V domains shown) VH: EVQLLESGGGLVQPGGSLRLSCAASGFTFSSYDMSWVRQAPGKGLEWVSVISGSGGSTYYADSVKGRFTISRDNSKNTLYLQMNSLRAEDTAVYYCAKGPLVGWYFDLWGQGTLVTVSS VL: QSALTQPASVSGSPGQSITISCTGTSSDFGSYNLVSWYQQHPGKAPKLMIYEGNKRPSGVSNRFSGSKSGNTASLTISGLQAEDEADYYCCSYAGSSTFVVFGGGTKLTVL	22.5
SARS-CoV-2 variant 1-22 (antibody, V domains shown) VH: EVQLLESGGGLVQPGGSLRLSCAASGFTFSSYAMNWVRQAPGKGLEWVSIISGSGGSTYYADSVKGRFTISRDNSKNTLYLQMNSLRAEDTAVYYCAREGYRDYLWYFDLWGQGTLVTVSS VL: QSALTQPASVSGSPGQSITISCTGTSTDVGSYNLVSWYQQHPGKAPKLMIYEGSQRPSGVSNRFSGSKSGNTASLTISGLQAEDEADYYCCSYAGSSTVFGGGTKLTVL	40.6
SARS-CoV-2 variant 1-27 (antibody, V domains shown) VH: EVQLLESGGGLVQPGGSLRLSCAASGFTFSSYAMTWVRQAPGKGLEWVSAISGSGGGTYYADSVKGRFTISRDNSKNTLYLQMNSLRAEDTAVYYCASSSSWQFDYWGQGTLVTVSS VL: QSALTQPASVSGSPGQSITISCTGTSSYVGHYNLVSWYQQHPGKAPKLMIYEGSRRPSGVSNRFSGSKSGNTASLTISGLQAEDEADYYCCSYAGSYTHYVFGGGTKLTVL	27.2
SARS-CoV-2 variant 1-41 (antibody, V domains shown) VH: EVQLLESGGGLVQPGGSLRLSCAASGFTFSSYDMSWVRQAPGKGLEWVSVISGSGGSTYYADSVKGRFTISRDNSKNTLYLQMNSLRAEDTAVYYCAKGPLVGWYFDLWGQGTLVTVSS VL: QSALTQPASVSGSPGQSITISCTGTSSDIGSYNLVSWYQQHPGKAPKLMIYEGTKRPSGVSNRFSGSKSGNTASLTISGLQAEDEADYYCCSYAGSRTYVFGGGTKLTVL	18.1

Hey, just so you know, these numbers are from patent US20210395344A1.
